- TARGET OR SYSTEM: human SLC6A19 and TMEM27 (Homo sapiens)
- Construct: expressed in transfected cells
- Sequence (Q695T7 1-634): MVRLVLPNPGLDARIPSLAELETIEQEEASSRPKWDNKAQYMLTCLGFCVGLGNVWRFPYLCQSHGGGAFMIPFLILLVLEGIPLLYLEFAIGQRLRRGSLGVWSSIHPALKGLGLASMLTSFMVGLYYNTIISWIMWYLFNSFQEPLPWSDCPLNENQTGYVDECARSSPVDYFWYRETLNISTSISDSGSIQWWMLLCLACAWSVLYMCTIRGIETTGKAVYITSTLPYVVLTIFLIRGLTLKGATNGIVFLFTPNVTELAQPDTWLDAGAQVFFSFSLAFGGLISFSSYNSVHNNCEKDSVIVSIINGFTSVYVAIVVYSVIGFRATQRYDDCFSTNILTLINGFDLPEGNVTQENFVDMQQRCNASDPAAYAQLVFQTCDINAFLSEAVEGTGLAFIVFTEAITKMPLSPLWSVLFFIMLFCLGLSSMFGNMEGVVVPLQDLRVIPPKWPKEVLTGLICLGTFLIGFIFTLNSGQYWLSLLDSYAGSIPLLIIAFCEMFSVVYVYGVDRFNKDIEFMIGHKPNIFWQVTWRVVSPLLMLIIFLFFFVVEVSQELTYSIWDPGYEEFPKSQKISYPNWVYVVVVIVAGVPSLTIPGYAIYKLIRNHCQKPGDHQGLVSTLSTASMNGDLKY
- Sequence (Q9HBJ8 15-222 partner): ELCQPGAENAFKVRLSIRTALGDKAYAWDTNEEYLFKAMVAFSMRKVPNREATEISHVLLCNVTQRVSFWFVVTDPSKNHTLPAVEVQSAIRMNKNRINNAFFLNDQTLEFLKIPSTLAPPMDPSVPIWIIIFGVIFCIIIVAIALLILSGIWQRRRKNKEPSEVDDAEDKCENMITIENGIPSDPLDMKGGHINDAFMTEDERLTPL
- ASSAY OVERVIEW: 13C6,15N-isoleucine uptake in CHO cells with doxycycline-inducible expression of human SLC6A19 and TMEM27, RapidFire mass spectrometry (Example B-2)
- Assay type: cell-based
- CONDITION: read-out: SLC6A19_RapidFire Uptake Assay IC50
pIC50: −log10 of the molar value.
Quick rule: pIC50 of at least 6 means YES, below that means NO.

Textbook exercise: given the entry `Cc1ncc(COc2ccc3cc(CNC(=O)C4(C)CC4)[nH]c3c2)s1` , state whether its pIC50 is greater than or equal to 6.
YES

Textbook exercise: given the entry `CCC(=O)NCc1cc2cc(Cl)c(OCc3cc(C)on3)cc2[nH]1` , state whether its pIC50 is greater than or equal to 6.
YES

Textbook exercise: given the entry `CC1(C(=O)NCc2cc3cc(Cl)c(OCc4ncccc4F)cc3[nH]2)CC1` , state whether its pIC50 is greater than or equal to 6.
YES

Textbook exercise: given the entry `Cc1cc2cc(CNC(=O)N3CCCC3)[nH]c2cc1OCc1ccon1` , state whether its pIC50 is greater than or equal to 6.
YES

Textbook exercise: given the entry `CNC(=O)NCc1cc2cc(Cl)c(OCc3cocn3)cc2[nH]1` , state whether its pIC50 is greater than or equal to 6.
YES

Textbook exercise: given the entry `Cn1ncc(COc2cc3[nH]c(CNC(=O)N4CCC4)cc3cc2F)n1` , state whether its pIC50 is greater than or equal to 6.
NO

Textbook exercise: given the entry `CNC(=O)NCc1cc2cc(Cl)c(OCc3cscn3)cc2[nH]1` , state whether its pIC50 is greater than or equal to 6.
YES

Textbook exercise: given the entry `CC1(C(=O)NCc2cc3ccc(OCC4CCCC4)cc3[nH]2)CC1` , state whether its pIC50 is greater than or equal to 6.
YES

Textbook exercise: given the entry `Cc1cc(CCc2cc3[nH]c(CNC(=O)C4(C)CC4)cc3cc2Cl)no1` , state whether its pIC50 is greater than or equal to 6.
YES

Textbook exercise: given the entry `CCc1cc(COc2cc3[nH]c(CNC(=O)C4(C)CC4)cc3cc2Cl)no1` , state whether its pIC50 is greater than or equal to 6.
YES

Textbook exercise: given the entry `O=C(NCc1cc2cc(Cl)c(OCc3ccon3)cc2[nH]1)N1CCCC1` , state whether its pIC50 is greater than or equal to 6.
YES

Textbook exercise: given the entry `CC1(C(=O)NCc2cc3ccc(SCc4ccon4)cc3[nH]2)CC1` , state whether its pIC50 is greater than or equal to 6.
YES

Textbook exercise: given the entry `CCC(=O)NCc1cc2cc(C)c(OCc3cscn3)cc2[nH]1` , state whether its pIC50 is greater than or equal to 6.
YES

Textbook exercise: given the entry `CC1(C(=O)NCc2cc3ccc(OCc4ccccc4)cc3[nH]2)CC1` , state whether its pIC50 is greater than or equal to 6.
YES

Textbook exercise: given the entry `CC1(C(=O)NCc2cc3cc(CC(F)(F)F)c(OCc4ccon4)cc3[nH]2)CC1` , state whether its pIC50 is greater than or equal to 6.
YES

Textbook exercise: given the entry `CNC(=O)NCc1cc2ccc(OCc3cocn3)cc2[nH]1` , state whether its pIC50 is greater than or equal to 6.
NO

Textbook exercise: given the entry `CCC(=O)NCc1cc2cc(F)c(OCc3cscn3)cc2[nH]1` , state whether its pIC50 is greater than or equal to 6.
YES

Textbook exercise: given the entry `Cn1nnc(COc2ccc3cc(CNC(=O)C4(C)CC4)[nH]c3c2)n1` , state whether its pIC50 is greater than or equal to 6.
NO

Textbook exercise: given the entry `Cc1cc(COc2ccc3cc(CNC(=O)C4(C)CC4)[nH]c3c2)on1` , state whether its pIC50 is greater than or equal to 6.
YES

Textbook exercise: given the entry `CNC(=O)NCc1cc2cc(F)c(OCc3ccon3)cc2[nH]1` , state whether its pIC50 is greater than or equal to 6.
NO

Textbook exercise: given the entry `CC1(C(=O)NCc2cc3cc(C(F)F)c(OCc4cscn4)cc3[nH]2)CC1` , state whether its pIC50 is greater than or equal to 6.
YES

Textbook exercise: given the entry `CN(Cc1cn[nH]c1)C(=O)NCc1cc2ccc(OCc3cscn3)cc2[nH]1` , state whether its pIC50 is greater than or equal to 6.
NO

Textbook exercise: given the entry `O=C(NCc1cc2cc(Cl)c(OCc3ccccn3)cc2[nH]1)C1CC1` , state whether its pIC50 is greater than or equal to 6.
YES

Textbook exercise: given the entry `CC1CN(C(=O)NCc2cc3cc(F)c(OCc4ccon4)cc3[nH]2)C1` , state whether its pIC50 is greater than or equal to 6.
YES

Textbook exercise: given the entry `CC1(C(=O)NCc2cc3cc(Cl)c(OCc4ccc(F)cn4)cc3[nH]2)CC1` , state whether its pIC50 is greater than or equal to 6.
YES

Textbook exercise: given the entry CC1CCN(C(=O)NCc2cc3ccc(OCc4ccon4)cc3[nH]2)C1 (stereo not drawn) , state whether its pIC50 is greater than or equal to 6.
YES

Textbook exercise: given the entry `CC1(C(=O)NCc2cc3cc(Cl)c(OCc4ccc(Cl)s4)cc3[nH]2)CC1` , state whether its pIC50 is greater than or equal to 6.
YES

Textbook exercise: given the entry `O=C(NCc1cc2cc(F)c(OCc3cscn3)cc2[nH]1)C1CC1` , state whether its pIC50 is greater than or equal to 6.
YES

Textbook exercise: given the entry `CC1(C(=O)NCc2cc3ccc(OCc4nncs4)cc3[nH]2)CC1` , state whether its pIC50 is greater than or equal to 6.
NO

Textbook exercise: given the entry `Cn1ncc(COc2cc3[nH]c(CNC(=O)C4(C)CC4)cc3cc2Cl)n1` , state whether its pIC50 is greater than or equal to 6.
YES

Textbook exercise: given the entry `CC1(C(=O)NCc2cc3ccc(OCc4ccccn4)cc3[nH]2)CC1` , state whether its pIC50 is greater than or equal to 6.
YES

Textbook exercise: given the entry `CC1CN(C(=O)NCc2cc3cc(F)c(OCc4cscn4)cc3[nH]2)C1` , state whether its pIC50 is greater than or equal to 6.
YES

Textbook exercise: given the entry `O=C(NCc1cc2cc(Cl)c(CCc3ccon3)cc2[nH]1)N1CCCC1` , state whether its pIC50 is greater than or equal to 6.
YES

Textbook exercise: given the entry `Cc1cc(Cc2ccc3cc(CNC(=O)C4(C)CC4)[nH]c3c2)no1` , state whether its pIC50 is greater than or equal to 6.
NO

* * *

- TARGET OR SYSTEM: human SLC6A19 and TMEM27 (Homo sapiens)
- Construct: expressed in transfected cells
- ASSAY OVERVIEW: Radiolabelled (3H) leucine uptake in CHO cells with doxycycline-inducible expression of human SLC6A19 and TMEM27 (Example B-1)
- Type: cell-based
- CONDITION: CHO cells with doxycycline-inducible expression of human SLC6A19 and TMEM27, read-out: SLC6A19_Radioligand Uptake Assay IC50
- Procedure: The flasks were then incubated (humidified, 37° C. with 5% CO2) for 2 minutes. After incubation, 10 mL of pre-warmed cell culture media was added to each flask. The cell suspension was collected and centrifuged for 5 minutes at 200×g. […] The resuspended cells were counted using the Countess Cell Counting Chamber (Invitrogen) and the cell concentration of the suspension was readjusted to 1 million live cells/mL using pre-warmed cell culture media. […]
MEASUREMENT KIND: IC50

Quick one: IC50 for CCc1cc2cc(CNC(=O)C3(C)CC3)[nH]c2cc1OCc1ccon1 [Compound 61] ?
297 nM

Quick one: IC50 for CC1(C(=O)NCc2cc3cc(Cl)c(OCc4cscn4)cc3[nH]2)CCO1 (stereo not drawn) [Compound 260] ?
2350 nM

Quick one: IC50 for CC(=O)NCc1cc2cc(F)c(OCc3ccno3)cc2[nH]1 [Compound 220] ?
1550 nM

Quick one: IC50 for CC1(C(=O)NCc2cc3cc(Cl)c(OCc4ncon4)cc3[nH]2)CC1 [Compound 319] ?
273 nM

Quick one: IC50 for Cc1cc(COc2cc3[nH]c(CNC(=O)CC4COC4)cc3cc2Cl)on1 [Compound 258] ?
2670 nM

Quick one: IC50 for CC1(C(=O)NCc2cc3cc(Cl)c(OCCc4ccon4)cc3[nH]2)CC1 [Compound 103] ?
114 nM

Quick one: IC50 for CC(=O)NCc1cc2cc(F)c(OCc3cnn(C)n3)cc2[nH]1 [Compound 222] ?
3170 nM

Quick one: IC50 for CC1(C(=O)NCc2cc3cc(Cl)c(OCc4cnsc4)cc3[nH]2)CC1 [Compound 69] ?
148 nM

Quick one: IC50 for O=C(NCc1cc2cc(Cl)c(OCc3cscn3)cc2[nH]1)[C@H]1CCOC1 [Compound 308] ?
168 nM

Quick one: IC50 for Cc1cc(COc2cc3[nH]c(CNC(=O)C4(CO)CCCO4)cc3cc2Cl)on1 (stereo not drawn) [Compound 295] ?
1610 nM

Quick one: IC50 for Cc1cc2c(Cl)c(CNC(=O)N3CCC3)[nH]c2cc1OCc1cscn1 [Compound 475] ?
432 nM

Quick one: IC50 for O=C(NCc1cc2cc(Cl)c(OCc3cscn3)cc2[nH]1)C1CC12CCC2 (stereo not drawn) [Compound 558] ?
1030 nM

Quick one: IC50 for Cc1cc2cc(CNC(=O)N3CCCC3)[nH]c2cc1OCc1ccon1 [Compound 533] ?
332 nM

Quick one: IC50 for Cc1cc(COc2cc3[nH]c(CNC(=O)[C@@H]4CC(F)(F)CN4C)cc3cc2Cl)on1 [Compound 668] ?
1150 nM

Quick one: IC50 for Cc1cc(COc2cc3[nH]c(CNC(=O)[C@H]4CC[C@@H]4O)cc3cc2Cl)on1 (racemic) [Compound 248] ?
627 nM

Quick one: IC50 for O=C(NCc1cc2cc(Cl)c(OCc3cscn3)cc2[nH]1)N1CCC1 [Compound 81] ?
150 nM

Quick one: IC50 for Cc1cc(COc2cc3[nH]c(CNC(=O)[C@H]4CCN4C)cc3cc2Cl)on1 [Compound 575] ?
3050 nM

Quick one: IC50 for CC1(C(=O)NCc2cc3cc(Cl)c(OCCC4CCCO4)cc3[nH]2)CC1 (racemic) [Compound 397] ?
492 nM
